Biological target: T1, lecithin:cholesterol acyltransferase (LCAT), purified from human plasma (human, UniProt P04180 25-440)
T1 sequence (looked up): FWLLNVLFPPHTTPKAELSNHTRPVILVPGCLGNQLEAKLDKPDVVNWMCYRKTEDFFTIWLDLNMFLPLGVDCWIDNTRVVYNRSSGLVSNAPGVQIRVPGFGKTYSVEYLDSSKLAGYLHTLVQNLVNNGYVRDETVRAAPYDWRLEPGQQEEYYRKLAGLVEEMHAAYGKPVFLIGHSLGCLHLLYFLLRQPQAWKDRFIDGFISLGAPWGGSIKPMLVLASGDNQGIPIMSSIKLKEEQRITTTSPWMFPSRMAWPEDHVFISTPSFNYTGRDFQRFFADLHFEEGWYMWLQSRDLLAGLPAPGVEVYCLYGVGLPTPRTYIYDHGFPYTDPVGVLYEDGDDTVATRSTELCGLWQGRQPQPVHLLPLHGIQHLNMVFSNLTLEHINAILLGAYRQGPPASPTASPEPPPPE
Assay: cell-based or functional assay
Non-standard residues stand in square brackets, D forms with d. Primed or numbered codes have the meaning given here. No end group written: not given here. Nal″ = naphthylalanine; Aib = CC(C)(N)C(=O)O
value type: ACTIVITY (%) LCAT

// known answers, use as guide
>>> df
                                     binder         value_type  reported_measurement
0       PVLDWFRELLNELLEALKQKLK [peptide 35]  ACTIVITY (%) LCAT                    31
1  PVLDLFRELLNW[Aib]LEALKQKLK [peptide 101]  ACTIVITY (%) LCAT                     2
2   Ac-PALELFKDLLEELRQRLK-NH2 [peptide 208]  ACTIVITY (%) LCAT                    48
3   Ac-PVLDLFRELLEELKQKLK-NH2 [peptide 193]  ACTIVITY (%) LCAT                    96
4  PVLDEFREKLNE[Aib]LEALEQKLK [peptide 118]  ACTIVITY (%) LCAT                     0
5       PVLDEFRELLNELLEALKQKLK [peptide 79]  ACTIVITY (%) LCAT                     9
6   PVLDLFRELLNELLE[Nal″]LKQKLK [peptide 1]  ACTIVITY (%) LCAT                   120
7    PVLDEFREKLNE[Aib]LEALKQKL [peptide 58]  ACTIVITY (%) LCAT                    18

A = PVLDLFRELLNELWEALKQKLK [peptide 28]
B = VLDEFREKLNE[Aib]LEALKQKLK [peptide 65]
Input line: Exercise: compare A and B ; which one has the greater ACTIVITY (%) LCAT? Write the label of whichever entry you select.
Output line: A

A = PVWDEFREKLNE[Aib]LEALKQKLK [peptide 52]
B = [dP]VLDLFRELLNEGLEALKQKLK [peptide 19]
Input line: Choose between A and B : whose measured ACTIVITY (%) LCAT value is numerically larger? Identify your selection by its label.
Output line: B

The reported measurements were obtained from patent US20050080013A1.
